Entries annotated with measured self-splicing fitness (ln)
- test_summary: self-splicing fitness, log relative to wild type (ln ratio); higher = more splicing; Tetrahymena group I intron in knt gene, E. coli kanamycin selection, DiMSum; sequences stand for … in CUCUCU…GGAGGGAAAAGUUAUCAGGCAUGCACCUGGUAGCUAGUCUUUAAACCAAUAGAUUGCAUCGGUUUAAAAGGCAAGACCGUCAAAUUGCGGGAAAGGGGUCAACAGCCGUUCAGUACCAAGUCUCAGGGGAAACUUUGAGAUGGCCUUGCAAAGGGUAUGGUAAUAAGCUGACGGACAUGGUCCUAACCACGCAGCCAAGUCCUAAGUCAACAGAUCUUCUGUUGAUAUGGAUGCAGUUCACAGACUAAAUGUCGGUCGGGGAAGAUGUAUUCUUCUCAUAAGAUAUAGUCGGACCUCUCCUUAAUGGGAGCUAGCGGAUGAAGUGAUGCAACACUGGAGCCGCUGGGAACUAAUUUGUAUGCGAAAGUAUAUUGAUUAGUUUUGGAGUACUCGUGGUCG;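 note: selection with 25 µg/mL kanamycin versus none on LB agar overnight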
- test_parameters: 37 °C
Just the number, please.

Solved entries:
Asked: What measured self-splicing fitness (ln) goes with "CCACAGCAAUAUUACGGAAA" ?
Given back: -3.54

Asked: Entry "UCUAAGCAAUAUUACGAAGA" please
Given back: -0.678

Asked: Entry "GGCGAGCAAUAUUACGGCUU" please
Given back: -0.0819

Asked: Entry "CGUCAGCAAUAUUACGCAGA" please
Given back: -3.76

Asked: Entry "UCACAGCAAUAUUACGGAAC" please
Given back: -2.45

Asked: Entry "CUUUAGCAAUAUUACGGUGU" please
Given back: -3.12

Asked: Entry "GGACAGCAAUAUUACGUGAA" please
Given back: -0.142

Asked: Entry "GGCUAGCAAUAUUACGGUCA" please
Given back: -0.851

New cases:
Asked: What measured self-splicing fitness (ln) goes with "UUCGAGCAAUAUUACGCCAG" ?
Given back: -0.74

Asked: Entry "UAACAGCAAUAUUACGUCUC" please
Given back: -3.02

Asked: Entry "GCGUAGCAAUAUUACGUAGA" please
Given back: -2.88

Asked: Entry "GAAUAGCAAUAUUACGUAGU" please
Given back: -1.99
